Origin of the recorded values: patent US10351522B2

# Target Desc: human OX1R (Homo sapiens)
# Construct: expressed in transfected cells; host or cells: CHO (Chinese hamster ovary) cells, line CHOOX1R, co-expressing NFAT-luciferase
# Sequence (O43613 1-425): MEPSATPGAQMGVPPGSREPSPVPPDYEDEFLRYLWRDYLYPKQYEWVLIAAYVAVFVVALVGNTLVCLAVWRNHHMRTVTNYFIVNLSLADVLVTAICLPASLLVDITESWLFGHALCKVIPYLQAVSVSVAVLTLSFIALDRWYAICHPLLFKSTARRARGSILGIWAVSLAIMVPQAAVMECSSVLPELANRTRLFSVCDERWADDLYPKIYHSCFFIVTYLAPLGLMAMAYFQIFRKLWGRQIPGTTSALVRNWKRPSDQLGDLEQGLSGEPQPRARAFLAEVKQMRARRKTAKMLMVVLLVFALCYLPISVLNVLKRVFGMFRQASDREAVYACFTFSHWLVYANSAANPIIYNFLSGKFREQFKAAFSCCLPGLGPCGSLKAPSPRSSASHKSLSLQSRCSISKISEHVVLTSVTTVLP
# Test: Agonist activity against OX1R: intracellular calcium (Fura-2AM, FDSS7000) in CHOOX1R cells
# Assay type: cell-based
# Study Conditions: 1.0 μM test compound; relative to orexin-A as full agonist (100%)
Value Kind: Response (%) OX1R

Use these answered entries as a reference point.
Data request: Request the reported Response (%) OX1R associated with COc1ccc(-c2cccc(C(=O)N(C)C)c2)cc1S(=O)(=O)Nc1cccc(NC(=O)Nc2cccc(Br)c2)c1
Data returned: <5%

Data request: Follow-up entry: COc1ccc(-c2cccc(C(=O)N(C)C)c2)cc1S(=O)(=O)Nc1cccc(NC(=O)Nc2cccc(C(=O)N(C)C)c2)c1
Data returned: <5%

Data request: Follow-up entry: COc1ccc(-c2cccc(C(=O)N(C)C)c2)cc1S(=O)(=O)Nc1cccc(Nc2cccc(C(F)(F)F)c2)c1
Data returned: <5%

Data request: Follow-up entry: COc1ccc(-c2cccc(C(=O)N(C)C)c2)cc1S(=O)(=O)Nc1cccc(NC(=O)OCc2ccccc2)c1
Data returned: 6%

Data request: Follow-up entry: COc1ccc(-c2cccc(C(=O)N(C)C)c2)cc1S(=O)(=O)Nc1cccc(NC(=O)Nc2ccc(NC(=N)NC(=O)OC(C)(C)C)cc2)c1
Data returned: <5%

Data request: Follow-up entry: COc1ccc(-c2cccc(C(=O)N(C)C)c2)cc1S(=O)(=O)Nc1cccc(NC(=O)Nc2ccccc2[N+](=O)[O-])c1
Data returned: <5%

Shift focus to the following entry.
Data request: Request the reported Response (%) OX1R associated with COc1ccc(-c2cccc(C(=O)N(C)C)c2)cc1S(=O)(=O)Nc1cccc(NCc2ccc(C)cc2)c1
Data returned: 24%

* * *

# Target Desc: human OX2R (Homo sapiens, UniProt O43614)
# Construct: expressed in transfected cells; host or cells: CHO (Chinese hamster ovary) cells, line CHOOX2R, co-expressing NFAT-luciferase
# Test: Agonist activity against OX2R: intracellular calcium (Fura-2AM, FDSS7000) in CHOOX2R cells
# Format: cell-based
# Study Conditions: 10 μM test compound; relative to orexin-A as full agonist (100%)
Value Kind: Response (%) OX2R
One number for each entry, in %.

Use these answered entries as a reference point.
Data request: Request the reported Response (%) OX2R associated with COc1ccc(-c2cccc(C(=O)N(C)C)c2)cc1S(=O)(=O)Nc1cccc(NC(=O)Nc2ccc(N(C)C)nc2)c1
Data returned: 113

Data request: Follow-up entry: COc1ccc(-c2cccc(C(=O)N(C)C)c2)cc1S(=O)(=O)Nc1cccc(NC(=O)Nc2ccc([N+](=O)[O-])cc2)c1
Data returned: 99

Data request: Follow-up entry: COc1ccc(-c2cccc(C(=O)N(C)C)c2)cc1S(=O)(=O)Nc1cccc(NC(=O)c2ccccc2N(C)C)c1
Data returned: 32

Data request: Follow-up entry: COc1ccc(-c2cccc(C(=O)N(C)C)c2)cc1S(=O)(=O)Nc1cccc(NC(=O)Nc2ccc(NC(=N)N)cc2)c1
Data returned: 31

Data request: Follow-up entry: COc1ccc(-c2cccc(C(=O)N(C)C)c2)cc1S(=O)(=O)Nc1cccc(NC(=O)c2ccc(C)cc2)c1
Data returned: 41

Data request: Follow-up entry: COc1ccc(-c2cccc(C(=O)N(C)C)c2)cc1S(=O)(=O)Nc1cccc(NC(=O)Nc2cccc(N(C)C)c2)c1
Data returned: 52

Shift focus to the following entry.
Data request: Request the reported Response (%) OX2R associated with COc1ccc(-c2cccc(C(=O)N(C)C)c2)cc1S(=O)(=O)Nc1cccc(NC(=O)Nc2ccc(N)cc2)c1
Data returned: 105

* * *

For each of the molecules below, state its Response (%) OX2R.
# Target Desc: human OX2R (Homo sapiens, UniProt O43614)
# Construct: expressed in transfected cells; host or cells: CHO (Chinese hamster ovary) cells, line CHOOX2R, co-expressing NFAT-luciferase
# Sequence (O43614 1-444): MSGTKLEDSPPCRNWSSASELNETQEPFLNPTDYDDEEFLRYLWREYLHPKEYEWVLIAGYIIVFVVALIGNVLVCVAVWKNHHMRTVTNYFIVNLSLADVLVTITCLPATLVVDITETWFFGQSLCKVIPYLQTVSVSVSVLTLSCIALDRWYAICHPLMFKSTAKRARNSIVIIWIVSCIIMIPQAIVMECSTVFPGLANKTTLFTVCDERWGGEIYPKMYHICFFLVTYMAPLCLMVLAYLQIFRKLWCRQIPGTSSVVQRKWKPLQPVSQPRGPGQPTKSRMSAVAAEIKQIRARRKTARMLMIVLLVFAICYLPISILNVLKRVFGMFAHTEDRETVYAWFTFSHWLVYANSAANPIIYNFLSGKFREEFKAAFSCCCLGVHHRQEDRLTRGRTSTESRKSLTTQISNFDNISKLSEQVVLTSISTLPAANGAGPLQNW
# Test: Agonist activity against OX2R: intracellular calcium (Fura-2AM, FDSS7000) in CHOOX2R cells
# Format: cell-based
# Study Conditions: test compound 10 μM; relative to orexin-A as full agonist (100%)
One number for each entry, in %.

Use these answered entries as a reference point.
Data request: Request the reported Response (%) OX2R associated with COc1ccc(-c2cccc(C(=O)N(C)C)c2)cc1S(=O)(=O)Nc1cccc(NC(=O)Nc2cccc(N(C)C)c2)c1OC [Example 123]
Data returned: 111

Data request: Follow-up entry: COc1ccc(-c2cccc(C(=O)N(C)C)c2)cc1S(=O)(=O)Nc1cccc(NS(=O)(=O)c2cccc(Br)c2)c1 [Example 86]
Data returned: 11

Data request: Follow-up entry: COc1ccc(C(=O)NCc2ccccc2)cc1S(=O)(=O)Nc1cccc(NC(=O)Nc2ccc(N(C)C)cc2)c1 [Example 108]
Data returned: 24

Data request: Follow-up entry: COc1ccc(-c2cccc(C(=O)N(C)C)c2)cc1S(=O)(=O)Nc1cccc(NS(=O)(=O)c2cccc(F)c2)c1 [Example 88]
Data returned: 13

Lab note: each molecule below needs its Response (%) OX2R filled in.
1. COc1ccc(C(=O)NCc2cccnc2)cc1S(=O)(=O)Nc1cccc(NC(=O)Nc2ccc(N(C)C)cc2)c1 [Example 109]
2. CCN(Cc1ccccc1)C(=O)c1ccc(OC)c(S(=O)(=O)Nc2cccc(NC(=O)Nc3ccc(N(C)C)cc3)c2)c1 [Example 110]
3. COc1ccc(-c2cccc(C(=O)N(C)C)c2)cc1S(=O)(=O)Nc1ccc(NC(=O)Nc2cccc(N(C)C)c2)cc1 [Example 122]

Data returned:
1. 39
2. 109
3. 10

* * *

For each of the compounds below, state its Response (%) OX1R.
# Target Desc: human OX1R (Homo sapiens, UniProt O43613)
# Construct: expressed in transfected cells; host or cells: CHO (Chinese hamster ovary) cells, line CHOOX1R, co-expressing NFAT-luciferase
# Test: Agonist activity against OX1R: intracellular calcium (Fura-2AM, FDSS7000) in CHOOX1R cells
# Type: cell-based
# Study Conditions: 10 μM test compound; relative to orexin-A as full agonist (100%)
Answers are plain numbers, in %.

Data request: Request the reported Response (%) OX1R associated with COc1ccc(-c2cccc(C(=O)N(C)C)c2)cc1S(=O)(=O)Nc1cccc(NC(=O)Nc2ccccn2)c1 [Example 68]
Data returned: 6

Data request: Follow-up entry: COc1ccccc1C(=O)Nc1cccc(NS(=O)(=O)c2cc(-c3cccc(C(=O)N(C)C)c3)ccc2OC)c1 [Example 18]
Data returned: 15

Next:
Data request: Request the reported Response (%) OX1R associated with COc1ccc(-c2cccc(C(=O)N(C)C)c2)cc1S(=O)(=O)Nc1cccc(NC(=O)Nc2cccnc2)c1 [Example 69]
Data returned: 6

* * *

# Target Desc: human OX2R (Homo sapiens, UniProt O43614)
# Construct: expressed in transfected cells; host or cells: CHO (Chinese hamster ovary) cells, line CHOOX2R, co-expressing NFAT-luciferase
# Test: Agonist activity against OX2R: intracellular calcium (Fura-2AM, FDSS7000) in CHOOX2R cells
# Assay type: cell-based
# Study Conditions: test compound 0.1 μM; relative to orexin-A as full agonist (100%)
For each of the compounds below, state its Response (%) OX2R.
Answers are plain numbers, in %.

Use these answered entries as a reference point.
Data request: Request the reported Response (%) OX2R associated with COc1ccc(-c2cccc(C(=O)N(C)C)c2)cc1S(=O)(=O)Nc1cccc(NS(=O)(=O)c2cccc(F)c2)c1 [Example 88]
Data returned: 15

Data request: Follow-up entry: COc1ccc(-c2cccc(C(=O)N(C)C)c2)cc1S(=O)(=O)Nc1cccc(NC(=O)Nc2cccc(N(C)C)c2)c1OC [Example 123]
Data returned: 63

Data request: Follow-up entry: CCOc1ccc(-c2cccc(C(=O)N(C)C)c2)cc1S(=O)(=O)Nc1cccc(NC(=O)Nc2cccc(N(C)C)c2)c1 [Example 119]
Data returned: 49

Data request: Follow-up entry: CCN(Cc1cccnc1)C(=O)c1ccc(OC)c(S(=O)(=O)Nc2cccc(NC(=O)Nc3cccc(N(C)C)c3)c2)c1 [Example 102]
Data returned: 61

Lab note: each compound below needs its Response (%) OX2R filled in.
1. CCN(Cc1cccnc1)C(=O)c1ccc(OC)c(S(=O)(=O)Nc2cccc(NC(=O)Nc3ccc(N(C)C)cc3)c2)c1 [Example 111]
2. COc1ccc(-c2cccc(C(=O)N(C)C)c2)cc1S(=O)(=O)Nc1cccc(NCC(=O)NCc2cccc(C)c2)c1 [Example 92]
3. COc1ccc(C(=O)NCc2ccccc2)cc1S(=O)(=O)Nc1cccc(NC(=O)Nc2ccc(N(C)C)cc2)c1 [Example 108]
4. COc1ccc(-c2cccc(C(=O)N(C)C)c2)cc1S(=O)(=O)Nc1cccc(N2CCN(c3cccc(N(C)C)c3)C2=O)c1 [Example 130]

Data returned:
1: 32; 2: 35; 3: 6; 4: 64

Lab note: each compound below needs its Response (%) OX2R filled in.
1. COc1ccc(-c2cccc(C(=O)N(C)C)c2)cc1S(=O)(=O)Nc1cccc(NS(C)(=O)=O)c1 [Example 89]
2. COc1ccc(-c2cccc(C(=O)N(C)C)c2)cc1S(=O)(=O)Nc1cccc(N2CCCN(c3ccccc3)C2=O)c1 [Example 132]

Data returned:
[7, 42]
